Hey, just so you know, these numbers are from paper PMC7918878.

Target: eeAChE (Electrophorus electricus)
Sequence (O42275 24-633): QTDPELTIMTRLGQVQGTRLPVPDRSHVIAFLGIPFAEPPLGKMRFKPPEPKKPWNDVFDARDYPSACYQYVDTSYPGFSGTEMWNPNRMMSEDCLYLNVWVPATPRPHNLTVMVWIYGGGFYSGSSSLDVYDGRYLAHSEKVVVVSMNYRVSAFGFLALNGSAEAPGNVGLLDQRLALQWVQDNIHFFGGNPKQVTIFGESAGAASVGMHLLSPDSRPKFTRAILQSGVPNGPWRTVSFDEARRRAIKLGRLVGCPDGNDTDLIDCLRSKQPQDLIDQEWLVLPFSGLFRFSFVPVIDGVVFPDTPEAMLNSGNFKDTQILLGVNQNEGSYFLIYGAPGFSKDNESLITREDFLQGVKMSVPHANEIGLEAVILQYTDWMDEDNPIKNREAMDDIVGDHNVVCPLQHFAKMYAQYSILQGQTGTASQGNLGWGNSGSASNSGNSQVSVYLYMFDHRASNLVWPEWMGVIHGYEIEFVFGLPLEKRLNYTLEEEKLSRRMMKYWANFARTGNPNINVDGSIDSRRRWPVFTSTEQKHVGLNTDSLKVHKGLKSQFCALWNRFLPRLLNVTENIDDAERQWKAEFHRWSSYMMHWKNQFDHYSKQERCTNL
pKi: −log10 of the molar value.
ASSAY_ENDPOINT: pKi

COMPOUND	SYSTEM_UNDER_TEST	REPORTED_MEASUREMENT
O=C(NN=Cc1ccc(C(F)(F)F)cc1)c1ccc(C(F)(F)F)cc1 [2l]	eeAChE (Electrophorus electricus)	4.26

* * *

Molecular target: BuChE obtained from equine serum (EqBuChE) (Equus caballus, UniProt P81908)
Sequence (P81908 whole entry): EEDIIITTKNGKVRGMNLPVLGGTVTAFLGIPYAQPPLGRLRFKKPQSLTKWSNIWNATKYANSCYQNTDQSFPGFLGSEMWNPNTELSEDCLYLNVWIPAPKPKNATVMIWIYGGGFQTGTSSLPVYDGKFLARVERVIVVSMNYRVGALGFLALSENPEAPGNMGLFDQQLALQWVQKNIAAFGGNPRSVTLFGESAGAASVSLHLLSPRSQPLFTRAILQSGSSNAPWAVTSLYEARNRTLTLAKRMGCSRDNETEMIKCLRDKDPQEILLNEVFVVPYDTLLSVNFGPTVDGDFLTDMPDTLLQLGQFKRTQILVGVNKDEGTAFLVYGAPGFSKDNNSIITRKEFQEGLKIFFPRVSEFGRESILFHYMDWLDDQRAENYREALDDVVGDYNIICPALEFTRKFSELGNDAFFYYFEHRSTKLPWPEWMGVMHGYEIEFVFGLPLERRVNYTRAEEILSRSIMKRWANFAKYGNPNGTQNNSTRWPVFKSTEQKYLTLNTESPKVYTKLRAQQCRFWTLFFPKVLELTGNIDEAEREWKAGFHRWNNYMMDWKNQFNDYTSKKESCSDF
Test: biochemical
Type: biochemical
Conditions: mean ± SD, n = three independent experiments; BTCh 40 µM; read-out: IC50 BuChE
pIC50: −log10 of the molar value.

MOLECULE	SYSTEM_UNDER_TEST	pIC50
O=C(N/N=C/c1ccc(O)cc1)c1ccc(C(F)(F)F)cc1 [2e]	BuChE obtained from equine serum (EqBuChE) (Equus caballus, UniProt P81908)	3.64
Cc1ccc(C(=O)NN=Cc2ccc(C(F)(F)F)cc2)cc1 [2u]	BuChE obtained from equine serum (EqBuChE) (Equus caballus, UniProt P81908)	3.61
O=C(N/N=C/c1ccc(Br)cc1)c1ccc(C(F)(F)F)cc1 [2k]	BuChE obtained from equine serum (EqBuChE) (Equus caballus, UniProt P81908)	3.47
O=C(NN=Cc1ccccc1[N+](=O)[O-])c1ccc(C(F)(F)F)cc1 [2s]	BuChE obtained from equine serum (EqBuChE) (Equus caballus, UniProt P81908)	4.03
O=C(N/N=C/c1cccc(O)c1)c1ccc(C(F)(F)F)cc1 [2f]	BuChE obtained from equine serum (EqBuChE) (Equus caballus, UniProt P81908)	3.60
O=C(N/N=C/c1cccc(Cl)c1)c1ccc(C(F)(F)F)cc1 [2c]	BuChE obtained from equine serum (EqBuChE) (Equus caballus, UniProt P81908)	3.58
O=C(NN=Cc1cccc(C(F)(F)F)c1)c1ccc(C(F)(F)F)cc1 [2p]	BuChE obtained from equine serum (EqBuChE) (Equus caballus, UniProt P81908)	4.20
O=C(NN=Cc1ccccc1C(F)(F)F)c1ccc(C(F)(F)F)cc1 [2q]	BuChE obtained from equine serum (EqBuChE) (Equus caballus, UniProt P81908)	4.72
O=C(NN=Cc1ccc(C(F)(F)F)cc1)c1ccccc1 [2t]	BuChE obtained from equine serum (EqBuChE) (Equus caballus, UniProt P81908)	3.72
O=C(NN=Cc1cccc([N+](=O)[O-])c1)c1ccc(C(F)(F)F)cc1 [2r]	BuChE obtained from equine serum (EqBuChE) (Equus caballus, UniProt P81908)	3.88
O=C(N/N=C/c1ccccc1O)c1ccc(C(F)(F)F)cc1 [2g]	BuChE obtained from equine serum (EqBuChE) (Equus caballus, UniProt P81908)	3.05
O=C(NN=Cc1cccc(Br)c1)c1ccc(C(F)(F)F)cc1 [2n]	BuChE obtained from equine serum (EqBuChE) (Equus caballus, UniProt P81908)	3.78
Cc1ccc(/C=N/NC(=O)c2ccc(C(F)(F)F)cc2)cc1 [2i]	BuChE obtained from equine serum (EqBuChE) (Equus caballus, UniProt P81908)	3.60
O=C(NN=Cc1ccc(C(F)(F)F)cc1)c1ccc(C(F)(F)F)cc1 [2l]	BuChE obtained from equine serum (EqBuChE) (Equus caballus, UniProt P81908)	3.76
O=C(N/N=C/c1ccccc1)c1ccc(C(F)(F)F)cc1 [2a]	BuChE obtained from equine serum (EqBuChE) (Equus caballus, UniProt P81908)	3.19
O=C(N/N=C/c1ccc(Cl)cc1)c1ccc(C(F)(F)F)cc1 [2b]	BuChE obtained from equine serum (EqBuChE) (Equus caballus, UniProt P81908)	3.60
COc1ccc(/C=N/NC(=O)c2ccc(C(F)(F)F)cc2)cc1 [2j]	BuChE obtained from equine serum (EqBuChE) (Equus caballus, UniProt P81908)	3.55
O=C(NN=Cc1ccccc1Br)c1ccc(C(F)(F)F)cc1 [2o]	BuChE obtained from equine serum (EqBuChE) (Equus caballus, UniProt P81908)	4.27
O=C(N/N=C/c1ccc([N+](=O)[O-])cc1)c1ccc(C(F)(F)F)cc1 [2m]	BuChE obtained from equine serum (EqBuChE) (Equus caballus, UniProt P81908)	3.72
O=C(NN=C1CCCC1)c1ccc(C(F)(F)F)cc1 [3b]	BuChE obtained from equine serum (EqBuChE) (Equus caballus, UniProt P81908)	3.70
O=C(N/N=C/c1cc(Cl)ccc1O)c1ccc(C(F)(F)F)cc1 [2h]	BuChE obtained from equine serum (EqBuChE) (Equus caballus, UniProt P81908)	3.54
O=C(NN=C1CCCCC1)c1ccc(C(F)(F)F)cc1 [3c]	BuChE obtained from equine serum (EqBuChE) (Equus caballus, UniProt P81908)	4.13
CC(C)=NNC(=O)c1ccc(C(F)(F)F)cc1 [3a]	BuChE obtained from equine serum (EqBuChE) (Equus caballus, UniProt P81908)	3.37
